READOUT_TYPE: melting point

Example entries begin here.
O=C(NCC(F)(F)F)C1(CCCCN2CCN(c3ccc(F)cc3)CC2)c2ccccc2-c2ccccc21	116 to 117 °C
Cc1cccc(N2CCN(CCCCC3(C(=O)NCc4ccc(F)cc4)c4ccccc4-c4ccccc43)CC2)n1	96 to 97 °C
Cl.Nc1ccc(N2CCN(CCCCC3(C(=O)NCC(F)(F)F)c4ccccc4-c4ccccc43)CC2)cc1	> 270 °C
O=C(NCC(F)(F)F)C1(CCCCN2CCN(c3ccc(C(F)(F)F)cn3)CC2)c2ccccc2-c2ccccc21	147 to 149 °C

The reported value for COc1cccc(N2CC(C)N(CCCCC3(C(=O)NCc4ccc(F)cc4)c4ccccc4-c4ccccc43)C(C)C2)n1 (centres unmarked) in terms of melting point is 78 to 79 °C
